Where do these numbers come from? They come from patent US20250221410A1.

# Test system: POAAN: Poa annua
# experiment_notes: Pre-emergence herbicide efficacy at 1280 g/ha, POAAN
# Type: in vivo
# reported_conditions: visual scoring after about 3 weeks vs untreated controls
Listed compounds paired with reported Pre-emergence efficacy against POAAN
quantity_name: Pre-emergence efficacy against POAAN

* Fc1ccc(Cc2ccccc2Oc2ncc(F)cn2)nc1 | 100%
* COc1cccc(Cc2ncc(Cl)cn2)c1Oc1ccc(F)cc1 | 100%
* N#CC(c1ncc(Cl)cn1)c1ccccc1-c1ccc(F)c(F)c1 (stereo not shown) | 90%
* Clc1ccc(Cc2ccccc2Oc2ncc(Cl)cn2)nc1 | 100%
* Fc1ccc(Oc2ccccc2Cc2ncccn2)cc1 | 90%
* Fc1cnc(Cc2ccccc2Oc2ncc(Cl)cn2)nc1 | 90%
* N#Cc1cccc(Cc2ncc(Cl)cn2)c1-n1cc(C(F)(F)F)cn1 | 90%
* Fc1ccc(Cc2ccccc2Cc2ncc(Cl)cn2)cc1 | 90%
* Clc1cnc(Cc2c(Cl)cccc2Oc2ncc(Cl)cn2)nc1 | 100%
* Fc1cnc(Oc2cccc(Br)c2Cc2ncc(Cl)cn2)nc1 | 100%

----------
# System: STEME: Stellaria media
# experiment_notes: Post-emergence herbicidal efficacy at 1280 g/ha, STEME
# Format: in vivo
# reported_conditions: visual rating about 3 weeks after treatment vs untreated controls
quantity_name: Post-emergence efficacy against STEME (%)

* Clc1cnc(Cc2c(Br)cccc2Oc2ncc(Cl)cn2)nc1 | 100
* Clc1ccc(Cc2ccccc2Oc2ncc(Cl)cn2)nc1 | 100
* Fc1cc(Cl)cnc1Cc1ccccc1SCCC(F)(F)F | 100
* N#Cc1cccc(Cc2ncc(Cl)cn2)c1Oc1ccc(F)cc1 | 100
* Fc1ccc(Oc2ccccc2Cc2ncc(Br)cn2)cc1 | 90
* Fc1ccc(Cc2ccccc2Oc2ncc(Cl)cc2F)nc1 | 100
* FC(F)c1cc(-c2ccccc2Cc2ncc(Cl)cn2)on1 | 100
* Fc1cnc(Oc2cccc(Br)c2Cc2ncc(Cl)cn2)nc1 | 100
* Fc1cnc(Cc2ccccc2Oc2ncc(Cl)cc2F)nc1 | 90
* Fc1cnc(Cc2ccccc2CCCC(F)(F)F)nc1 | 90
* Fc1ccc(Sc2ccccc2Cc2ccc(Cl)cn2)cc1 | 90
* COc1cccc(Cc2ncc(Cl)cn2)c1Oc1ccc(F)cc1 | 90
* Fc1ccc(Cc2ccccc2Cc2ncc(Cl)cn2)cc1 | 90
* FC(F)(F)CCCc1ccccc1Cc1ncc(Cl)cn1 | 100
* Fc1ccc(Sc2ccccc2Cc2ncc(F)cn2)cc1 | 100
* N#Cc1cccc(Cc2ncc(F)cn2)c1-n1cc(C(F)(F)F)cn1 | 100
* Fc1cnc(Oc2ccccc2Cc2ccc(Cl)cn2)nc1 | 90
* Fc1cc(Cl)cnc1Oc1ccccc1Cc1ccc(Cl)cn1 | 90
* Fc1cc(Cl)cnc1Oc1ccccc1Cc1ncccn1 | 90
* N#Cc1cccc(Cc2ncc(Cl)cn2)c1-n1cc(C(F)(F)F)cn1 | 90

----------
Listed compounds paired with reported Pre-emergence efficacy against AMARE in %
# System: AMARE: Amaranthus retroflexus
# experiment_notes: Pre-emergence herbicide efficacy at 80 g/ha, AMARE
# Format: in vivo
# reported_conditions: scored visually after about 3 weeks
quantity_name: Pre-emergence efficacy against AMARE in % (%)

* Fc1cccc(Cc2ncc(Cl)cn2)c1Oc1ncc(Cl)cn1 | 80
* Cc1nc(-c2ccccc2Cc2ncc(Cl)cn2)no1 | 90
* Clc1cnc(Cc2ccccc2Oc2ncc(Cl)cn2)nc1 | 90
* O=S(=O)(CCC(F)(F)F)Oc1c(Cl)cccc1Cc1ncc(F)cn1 | 90
* Fc1cnc(Oc2c(F)cccc2Cc2ncc(Cl)cn2)nc1 | 100
* Fc1cnc(Oc2cccc(Br)c2Cc2ncc(Cl)cn2)nc1 | 100
* Fc1ccc(Cc2c(F)cccc2Oc2ncc(Cl)cn2)nc1 | 100
* Cc1cccc(Oc2ncc(F)cn2)c1Cc1ncc(Cl)cn1 | 100
* FC(F)c1cc(-c2ccccc2Cc2ncc(Cl)cn2)on1 | 100
* Fc1cnc(Cc2cccc(Cl)c2Oc2ncc(Cl)cn2)nc1 | 100

----------
Listed molecules paired with reported Pre-emergence efficacy against SETVI in %
# Tested on: SETVI: Setaria viridis
# experiment_notes: Pre-emergence herbicide efficacy at 80 g/ha, SETVI
# Type: in vivo
# reported_conditions: scored visually after about 3 weeks
quantity_name: Pre-emergence efficacy against SETVI in % (%)

- Cc1cccc(Oc2ncc(F)cn2)c1Cc1ncc(Cl)cn1: 90
- FC(F)c1cc(-c2c(Cl)cccc2Cc2ncc(Cl)cn2)on1: 100
- Fc1ccc(Cc2c(F)cccc2Oc2ncc(Cl)cn2)nc1: 100
- N#Cc1cccc(Oc2ncc(F)cn2)c1Cc1ncc(Cl)cn1: 100
- Fc1cnc(Oc2c(F)cccc2Cc2ncc(Cl)cn2)nc1: 80
- Clc1cnc(Cc2c(Cl)cccc2Oc2ncc(Cl)cn2)nc1: 100
- FC(F)c1cc(-c2ccccc2Cc2ncc(Cl)cn2)on1: 100
- Fc1cnc(Oc2cccc(Br)c2Cc2ncc(Cl)cn2)nc1: 100
- Cc1cccc(Cc2ncc(Cl)cn2)c1Oc1ncc(Cl)cn1: 80

----------
# Tested on: POAAN: Poa annua
# experiment_notes: Pre-emergence herbicide efficacy at 1280 g/ha, POAAN
# Type: in vivo
# reported_conditions: visual scoring after about 3 weeks vs untreated controls
Listed compounds paired with reported Pre-emergence efficacy against POAAN
quantity_name: Pre-emergence efficacy against POAAN

- Fc1ccc(Oc2c(Cc3ncc(Cl)cn3)cccc2C(F)(F)F)cc1 [Example 1-40]: 100%
- Fc1cnc(Cc2ccccc2Oc2ncc(F)cn2)nc1 [Example 1-89]: 100%
- Cc1cccc(Oc2ncc(F)cn2)c1Cc1ncc(Cl)cn1 [Example 1-65]: 100%
- Fc1cc(Cl)cnc1Cc1ccccc1-n1cc(C(F)(F)F)cn1 [Example 1-130]: 90%
- Fc1cc(Cl)cnc1Cc1ccccc1SCCC(F)(F)F [Example 1-110]: 90%
- FC(F)(F)CCCc1ccccc1Cc1ncc(Cl)cn1 [Example 1-1]: 90%
- N#CC(c1ccc(Cl)cn1)c1ccccc1-c1ccc(F)c(F)c1 (stereo not drawn) [Example 1-80]: 90%
- Fc1cnc(Cc2ccccc2-c2ccc(F)c(F)c2)nc1 [Example 1-27]: 90%
- FC(F)c1cc(-c2ccccc2Cc2ncc(Cl)cn2)on1 [Example 1-133]: 100%

----------
# Test system: VERPE: Veronica persica
# experiment_notes: Pre-emergence herbicide efficacy at 80 g/ha, VERPE
# Assay type: in vivo
# reported_conditions: scored visually after about 3 weeks
quantity_name: Pre-emergence efficacy against VERPE in % (%)

* FC(F)c1cc(-c2c(Cl)cccc2Cc2ncc(Cl)cn2)on1 [Example 1-140] | 100
* Fc1cnc(Oc2cccc(Br)c2Cc2ncc(Cl)cn2)nc1 [Example 1-54] | 90
* O=S(=O)(CCC(F)(F)F)Oc1c(F)cccc1Cc1ncc(Cl)cn1 [Example 1-16] | 90
* Cc1cccc(Oc2ncc(F)cn2)c1Cc1ncc(Cl)cn1 [Example 1-65] | 100
* Fc1cnc(Cc2ccccc2-c2cc(C(F)F)no2)nc1 [Example 1-135] | 95
* FC(F)c1cc(-c2ccccc2Cc2ncc(Cl)cn2)on1 [Example 1-133] | 90
* Fc1ccc(Cc2c(F)cccc2Oc2ncc(Cl)cn2)nc1 [Example 1-194] | 90
* Clc1cnc(Cc2c(Cl)cccc2Oc2ncc(Cl)cn2)nc1 [Example 1-56] | 90
* N#Cc1cccc(Oc2ncc(F)cn2)c1Cc1ncc(Cl)cn1 [Example 1-59] | 90
* Fc1cccc(Oc2ncc(Cl)cn2)c1Cc1ncc(Cl)cn1 [Example 1-51] | 80

----------
# Test system: AMARE: Amaranthus retroflexus
# experiment_notes: Pre-emergence herbicide efficacy at 80 g/ha, AMARE
# Assay type: in vivo
# reported_conditions: scored visually after about 3 weeks
Listed molecules paired with reported Pre-emergence efficacy against AMARE in %
quantity_name: Pre-emergence efficacy against AMARE in % (%)

• Fc1cnc(Cc2ccccc2-c2cc(C(F)F)no2)nc1 = 100
• N#Cc1cccc(Oc2ncc(F)cn2)c1Cc1ncc(Cl)cn1 = 100
• O=S(=O)(CCC(F)(F)F)Oc1c(F)cccc1Cc1ncc(Cl)cn1 = 100
• Fc1cnc(Cc2cccc(F)c2Oc2ncc(F)cn2)nc1 = 100
• Fc1ccc(Oc2ccccc2Cc2ncc(F)cn2)cc1 = 90
• Cc1cccc(Cc2ncc(F)cn2)c1Oc1ncc(F)cn1 = 90
• Clc1cnc(Cc2c(Cl)cccc2Oc2ncc(Cl)cn2)nc1 = 100
• Fc1cnc(Cc2cccc(Cl)c2Oc2ncc(F)cn2)nc1 = 100
• O=S(=O)(CCC(F)(F)F)Oc1c(F)cccc1Cc1ncc(Br)cn1 = 100
• FC(F)c1cc(-c2c(Cl)cccc2Cc2ncc(Cl)cn2)on1 = 100
• N#Cc1cccc(Cc2ncc(Cl)cn2)c1-n1cc(C(F)(F)F)cn1 = 100

----------
Listed compounds paired with reported Post-emergence efficacy against STEME
# Test system: STEME: Stellaria media
# experiment_notes: Post-emergence herbicidal efficacy at 1280 g/ha, STEME
# Format: in vivo
# reported_conditions: visual rating about 3 weeks after treatment vs untreated controls
quantity_name: Post-emergence efficacy against STEME (%)

• N#Cc1cccc(Oc2ncc(F)cn2)c1Cc1ncc(Cl)cn1 [Example 1-59] = 100
• Fc1cnc(Cc2ccccc2-c2ccc(F)c(F)c2)nc1 [Example 1-27] = 90
• Fc1ccc(Oc2c(F)cccc2Cc2ncc(Cl)cn2)cc1 [Example 1-35] = 100
• Fc1ccc(Oc2c(Cc3ncc(Cl)cn3)cccc2C(F)(F)F)cc1 [Example 1-40] = 100
• N#CC(c1ncc(Cl)cn1)c1cccc(F)c1Oc1ccc(F)cc1 (centres unmarked) [Example 1-34] = 90
• N#CC(c1ccc(Cl)cn1)c1ccccc1-c1ccc(F)c(F)c1 (centres unmarked) [Example 1-80] = 90
• Fc1ccc(-c2ccccc2Cc2ncc(Cl)cc2F)cc1F [Example 1-127] = 100
• Fc1ccc(-c2ccccc2Cc2ncc(Cl)cn2)cc1F [Example 1-26] = 100
• Fc1cnc(Cc2ccccc2SCCC(F)(F)F)nc1 [Example 1-111] = 100
• FC(F)(F)c1cnn(-c2ccccc2Cc2ncc(Cl)cn2)c1 [Example 1-42] = 90
• N#CC(c1ncc(Cl)cn1)c1ccccc1Cc1ccc(F)cc1 (centres unmarked) [Example 1-69] = 90
• Fc1ccc(Oc2ccccc2Cc2ncccn2)cc1 [Example 1-98] = 90
• Fc1cnc(Cc2ccccc2Oc2ncc(Cl)cn2)nc1 [Example 1-70] = 90
• Cc1cccc(Cc2ncc(Cl)cn2)c1Oc1ccc(F)cc1 [Example 1-31] = 90
• Cc1cccc(Oc2ncc(Cl)cc2F)c1Cc1ncc(Cl)cn1 [Example 1-66] = 100
• FC(F)(F)CCSc1ccccc1Cc1ncc(Cl)cn1 [Example 1-112] = 100
• FC(F)(F)CCCOc1ccccc1Cc1ncc(Cl)cn1 [Example 1-8] = 90
• Fc1ccc(-c2ccccc2Cc2ccc(Cl)cn2)cc1F [Example 1-97] = 90
• Fc1ccc(Cc2ccccc2Oc2ncc(Cl)cn2)nc1 [Example 1-92] = 100
• Fc1ccc(Oc2c(Br)cccc2Cc2ncc(Cl)cn2)cc1 [Example 1-37] = 90
